assay_method_text: Effect of intravenous IS on the elimination of intravenous PSP in rats
Type: in vivo, rat
condition_description: male, Sprague-Dawley, rat, serum, iv, 5 mg/kg, MRT, the mean residence time, intravenous bolus of PSP 5.0 mg/kg with intravenous bolus of IS 10.0 mg/kg, mean ± S.E., n = 6
measurement_type: MRT (h)

- O=S1(=O)OC(c2ccc(O)cc2)(c2ccc(O)cc2)c2ccccc21: 9.54
